Numbers sourced from ChEMBL document CHEMBL1759915.

# System: MCF7
# method.description: Effect on CAT level in human MCF7 cells assessed per mg protein at 5 ug/ml after 24 hrs (reference value: 7.90+/- 0.67 U/mg of protein)
# Type: functional
The entries below come with measured Activity values attached.
Respond with the bare value in U/mg protein.

// query Note Activity for the compound shown: Cc1nc(-n2ncc3c(=S)[nH]cnc32)c2c3c(sc2n1)CCc1ccccc1-3
// result 5.36

***
// query Note Activity for the compound shown: Cc1nc(-n2ncc3c(Cl)ncnc32)c2c3c(sc2n1)CCc1ccccc1-3
// result 4.9

// query Note Activity for the compound shown: CCSc1ncnc2c1cnn2-c1nc(C)nc2sc3c(c12)-c1ccccc1CC3
// result 2.9

// query Note Activity for the compound shown: CCOCCSc1ncnc2c1cnn2-c1nc(C)nc2sc3c(c12)-c1ccccc1CC3
// result 4.5

// query Note Activity for the compound shown: COCCSc1ncnc2c1cnn2-c1nc(C)nc2sc3c(c12)-c1ccccc1CC3
// result 3.4

// query Note Activity for the compound shown: Cc1nc(-n2ncc3c(=O)[nH]cnc32)c2c3c(sc2n1)CCc1ccccc1-3
// result 3.6

// query Note Activity for the compound shown: Cc1nc(-n2ncc3c(S[C@@H]4O[C@H](CO)[C@@H](O)[C@H]4O)ncnc32)c2c3c(sc2n1)CCc1ccccc1-3
// result 6
